Data origin, for the record: PubChem BioAssay (NCATS)

protocol-summary: Quantitative High-Throughput drug screen in 47 multiple myeloma cell lines against the NCATS MIPE library collection: KMS12PE_JCRB cell viability assay (AID 1918972); note: nearly all actives have a fitted effect of over 30% in size;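 for viability: 100% = DMSO only wells and 0% = wells with media alone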
protocol-conditions: KMS12PE myeloma viability, CellTiter-Glo ATP, 48 h; series mostly up to 45.8 µM
Results filed as inconclusive are left out. Calls of active or inactive are those of the source. Calls come from the whole dose curve; as a rule, active = well fitted cell-killing curve with a large enough effect; inconclusive = small, poorly fitted or top-dose-only effect, or effect the other way; inactive = no such curve, though single readings can be large or run the other way.
Possible outcomes: class 1 = active, class 0 = inactive

> print(dat)
                                    compound    label
 1       N[C@@H](Cc1c[nH]c2ccc(O)cc12)C(=O)O  class 0
 2  CC(C)NCC(O)COc1ccc(CCOCC2CC2)cc1 (configuration not stated)  class 0
 3  Cc1cn([C@H]2C=C[C@@H](CO)O2)c(=O)[nH]c1=O  class 0
 4  COc1ccc(C2CNC(=O)C2)cc1OC1CCCC1 (configuration not stated)  class 0
 5                COc1nc(C)nc(Cl)c1NC1=NCCN1  class 0
 6  CC1(C)O[C@H]2CC(=O)OC[C@]23[C@H]2CC[C@@]4(C)[C@H](c5ccoc5)OC(=O)[C@H]5O[C@]54[C@]2(C)C(=O)C[C@@H]13  class 0
 7  C[C@H]1c2cccc(O)c2C(O)=C2C(=O)[C@]3(O)C(O)=C(C(N)=O)C(=O)[C@@H](N(C)C)[C@@H]3[C@@H](O)[C@@H]21  class 1
 8  CN1C(C(=O)Nc2ccccn2)=C(O)c2ccccc2S1(=O)=O  class 0
 9  CCN1CCCC1CNC(=O)c1cc(S(=O)(=O)CC)c(N)cc1OC (configuration not stated)  class 0
10                Cn1c(=O)c2[nH]cnc2n(C)c1=O  class 0
11  CN(CCOc1ccc(NS(C)(=O)=O)cc1)CCc1ccc(NS(C)(=O)=O)cc1  class 0
12  COc1cc2c(c(OC)c1OC)-c1ccc(OC)c(=O)cc1[C@@H](NC(C)=O)CC2  class 0
13  O=C(C1CCCCC1)N1CC(=O)N2CCc3ccccc3C2C1 (configuration not stated)  class 0
14  COc1cc2nc(N(C)CCCNC(=O)C3CCCO3)nc(N)c2cc1OC (configuration not stated)  class 0
15         CN(C)CCCN1c2ccccc2CCc2ccc(Cl)cc21  class 1
16                         CN(C)C(=N)N=C(N)N  class 0
17  COc1ccccc1OCC(O)CN1CCN(CC(=O)Nc2c(C)cccc2C)CC1 (configuration not stated)  class 0
18    Clc1ccccc1C(c1ccccc1)(c1ccccc1)n1ccnc1  class 1
19       Cn1ccc2cc3c(cc21)CCN3C(=O)Nc1cccnc1  class 1
20  CC(C(=O)O)c1cccc(C(=O)c2ccccc2)c1 (configuration not stated)  class 0
21  CC(C)C(=O)Nc1ccc([N+](=O)[O-])c(C(F)(F)F)c1  class 1
22     CC(=O)OCC(CCn1cnc2cnc(N)nc21)COC(C)=O  class 0
23  Cc1cnc(C(=O)NCCc2ccc(S(=O)(=O)NC(=O)NC3CCCCC3)cc2)cn1  class 1
24                   Nc1c2c(nc3ccccc13)CCCC2  class 0
25        CN1CCC(=C2c3ccccc3C=Cc3ccccc32)CC1  class 1
26               CN(C)c1nc(N(C)C)nc(N(C)C)n1  class 0
27   CCOC(=O)c1ncn2c1CN(C)C(=O)c1cc(F)ccc1-2  class 0
28  O=C(Nc1ccc([N+](=O)[O-])cc1Cl)c1cc(Cl)ccc1O  class 1
29           CNCCCC12CCC(c3ccccc31)c1ccccc12  class 1
30          Nc1nc2c(ncn2COC(CO)CO)c(=O)[nH]1  class 1
31  COc1ccccc1N1CCN(CC(O)COc2cccc3ccccc23)CC1 (configuration not stated)  class 0
32  CCCCc1oc2ccccc2c1C(=O)c1cc(I)c(OCCN(CC)CC)c(I)c1  class 1
33  O=C1c2c(O)ccc(O)c2C(=O)c2c(NCCNCCO)ccc(NCCNCCO)c21  class 1
34  CCC1(C)CC(=O)NC1=O (configuration not stated)  class 0
35  C[C@@H]1CC(=O)NN=C1c1ccc(NN=C(C#N)C#N)cc1  class 0
36  CC(CCc1ccc(O)cc1)NCCc1ccc(O)c(O)c1 (configuration not stated)  class 1
37  CN(C)C(=O)C(CCN1CCC(O)(c2ccc(Cl)cc2)CC1)(c1ccccc1)c1ccccc1  class 0
38           Cc1cc(C(C)(C)C)cc(C)c1CC1=NCCN1  class 0
39  CCc1cccc2c3c([nH]c12)C(CC)(CC(=O)O)OCC3 (configuration not stated)  class 0
40                   O=c1[nH]cc(F)c(=O)[nH]1  class 1
41              CCOC(=O)C(C)(C)Oc1ccc(Cl)cc1  class 0
42           C[C@](N)(Cc1ccc(O)c(O)c1)C(=O)O  class 0
43                Cn1c(=O)c2c(ncn2C)n(C)c1=O  class 0
44  NC(CO)C(=O)NNCc1ccc(O)c(O)c1O (configuration not stated)  class 0
45                                  NC(=O)NO  class 1
46                             NCCS(=O)(=O)O  class 0
47  CN1C2CCC1CC(OC(=O)C(CO)c1ccccc1)C2 (configuration not stated)  class 0
48        Cc1cc(C(C)(C)C)c(O)c(C)c1CC1=NCCN1  class 0
49      Clc1ccc2c(c1)C(N1CCNCC1)=Nc1ccccc1O2  class 0
50  CN1CCN2c3ccccc3Cc3ccccc3C2C1 (configuration not stated)  class 1
51  CC(C)(Oc1ccc(C2CC2(Cl)Cl)cc1)C(=O)O (configuration not stated)  class 0
52           CN(C)CCC=C1c2ccccc2C=Cc2ccccc21  class 0

====

protocol-summary: qHTS for differential inhibitors of proliferation of Plasmodium falciparum line Dd2 (AID 1882); note: nearly all actives have a fitted effect of over 65% in size
protocol-conditions: Plasmodium falciparum Dd2 proliferation inhibition; series mostly up to 28.7 µM
From the text: NIH Molecular Libraries Probe Production Network [MLPCN] NIH National Institute of Allergy and Infectious Diseases [NIAID] NIH Chemical Genomics Center [NCGC] Assay Provider: Xinzhuan Su, NIAID Plasmodium falciparum is a virulent malarial parasite that kills 1-2 million people worldwide each year. […] Because mature erythrocytes lack DNA, only Plasmodium-derived DNA is detected. […]
Records with an inconclusive call do not appear. Calls of active or inactive are those of the source. The call rests on the fitted dose curve; in most records, active means well fitted inhibition curve with a large enough effect; inconclusive means small, poorly fitted or top-dose-only effect; inactive means flat fitted curve, though single readings scatter.
Possible outcomes: active, inactive

> print(dat)
                                    compound     label
 1                                  NC(=O)NO  inactive
 2  COc1ccc(C2CNC(=O)C2)cc1OC1CCCC1 (stereo unspecified)  inactive
 3  CCc1cccc2c3c([nH]c12)C(CC)(CC(=O)O)OCC3 (stereo unspecified)  inactive
 4               CN(C)c1nc(N(C)C)nc(N(C)C)n1  inactive
 5          Nc1nc2c(ncn2COC(CO)CO)c(=O)[nH]1  inactive
 6      O=c1c(-c2ccc(O)cc2)coc2cc(O)cc(O)c12  inactive
 7  CC(C)Cc1ccc(C(C)C(=O)O)cc1 (stereo unspecified)  inactive
 8  Clc1ccc(C(c2ccccc2Cl)C(Cl)Cl)cc1 (stereo unspecified)  inactive
 9   CCOC(=O)c1ncn2c1CN(C)C(=O)c1cc(F)ccc1-2  inactive
10        Cc1cc(C(C)(C)C)c(O)c(C)c1CC1=NCCN1  inactive
11  Cc1cn([C@H]2C=C[C@@H](CO)O2)c(=O)[nH]c1=O  inactive
12  COc1ccccc1OCC(O)CN1CCN(CC(=O)Nc2c(C)cccc2C)CC1 (stereo unspecified)  inactive
13  CC[N+](CC)(CC)CCOc1cccc(OCC[N+](CC)(CC)CC)c1OCC[N+](CC)(CC)CC  inactive
14  O=C1N(c2ccccc2)c2ccccc2C1(Cc1ccncc1)Cc1ccncc1  inactive
15  O=C(c1ccc(F)cc1)C1CCN(CCn2c(=O)[nH]c3ccccc3c2=O)CC1    active
16                Cn1c(=O)c2[nH]cnc2n(C)c1=O  inactive
17  CCCNCC(O)COc1ccccc1C(=O)CCc1ccccc1 (stereo unspecified)    active
18                              NCCCCCC(=O)O  inactive
19  Cc1ccccc1N1C(=O)c2cc(S(N)(=O)=O)c(Cl)cc2NC1C (stereo unspecified)  inactive
20                             NCCc1cnc[nH]1  inactive
21  O=C(Nc1ccc([N+](=O)[O-])cc1Cl)c1cc(Cl)ccc1O    active
22  CC(C)NCC(O)c1ccc(O)c(O)c1 (stereo unspecified)  inactive
23    CN1CCN(CCCN2c3ccccc3Sc3ccc(Cl)cc32)CC1    active
24  NC(CO)C(=O)NNCc1ccc(O)c(O)c1O (stereo unspecified)  inactive
25              CCOC(=O)C(C)(C)Oc1ccc(Cl)cc1  inactive
26                COc1nc(C)nc(Cl)c1NC1=NCCN1  inactive
